Tested on: total AR mRNA
protocolDescription: Total (full-length) AR mRNA in C4-2B MR cells, free uptake
Assay type: cell-based, human
measurementContext: 0.20 μM, free uptake, 24 hrs
Oligonucleotides are written 5' to 3', each unit as a sugar letter and its base; * is a phosphorothioate linkage, no mark a phosphodiester; rarer units and linkages stand in square brackets, end groups in braces. Plain capitals give the bases only. e = 2'-O-(2-methoxyethyl) (MOE); l = locked nucleic acid (LNA); k = constrained ethyl (cEt); [5mC] = 5-methylcytosine; d = 2'-deoxy (DNA)
measureName: Percent inhibition of full-length AR mRNA in C4-2B MR cells (%)
Reply numerically in %, unit not repeated.

Please review the following examples before continuing.
- 554221 (ACCAAGTTTCTTCAGC; sugars from the 5' end l3 d10 l3, all phosphorothioate, methylation of C not given here) [compound 554221]: 0
- 549458 (kG*kT*kT*dG*dA*dT*dT*dT*dA*dA*dT*dG*dG*kT*kT*kG) [compound 549458]: 78
- 549372 (kA*kA*kG*dT*dT*dG*dT*dA*dG*dT*dA*dG*dT*k[5mC]*kG*k[5mC]) [compound 549372]: 47
- 347526 (TCTTATGTTTCCGAACCGTT; sugars from the 5' end e5 d10 e5, backbone and methylation of C not given here) [compound 347526]: 35

Kindly review the next substance as well.
Percent inhibition of full-length AR mRNA in C4-2B MR cells recorded for this substance, 549434 (k[5mC]*kT*kA*dA*dA*d[5mC]*dT*dT*d[5mC]*d[5mC]*d[5mC]*dG*dT*kG*kG*k[5mC]) [compound 549434] , is 36
